- test_target: Link_TSG6 (Homo sapiens, UniProt P98066)
- Construct: made in house
- Sequence (P98066 36-129 limits assumed): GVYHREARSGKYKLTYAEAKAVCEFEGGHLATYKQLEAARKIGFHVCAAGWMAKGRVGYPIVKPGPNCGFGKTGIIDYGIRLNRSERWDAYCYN
- measurement_description: ITC of HA oligosaccharides binding to Link_TSG6
- condition_parameters: Table 4; ITC, 25 °C, 5 mM MES pH 6.0; 0.029 mM Link_TSG6, 0.29 mM oligosaccharide; mean ± SEM, four titrations

- smiles_input: "CC(=O)N[C@H]1[C@H](O[C@H]2[C@H](O)[C@@H](O)[C@H](O[C@H]3[C@H](O)[C@@H](CO)O[C@@H](O[C@H]4[C@H](O)[C@@H](O)[C@H](O[C@@H]([C@H](O)[C@H](O)CO)[C@H](CNc5cccc6c5CCC6)NC(C)=O)O[C@@H]4C(=O)O)[C@@H]3NC(C)=O)O[C@@H]2C(=O)O)O[C@H](CO)[C@@H](O)[C@@H]1O[C@@H]1O[C@H](C(=O)O)[C@@H](O)[C@H](O)[C@H]1O"
  N: 0.97
- smiles_input: "COc1ccc(C(=O)O)c(NC[C@H](NC(C)=O)[C@@H](O[C@@H]2O[C@H](C(=O)O)[C@@H](O[C@@H]3O[C@H](CO)[C@@H](O)[C@H](O[C@@H]4O[C@H](C(=O)O)[C@@H](O[C@@H]5O[C@H](CO)[C@@H](O)[C@H](O[C@@H]6O[C@H](C(=O)O)[C@@H](O[C@@H]7O[C@H](CO)[C@@H](O)[C@H](O[C@@H]8O[C@H](C(=O)O)[C@@H](O)[C@H](O)[C@H]8O)[C@H]7NC(C)=O)[C@H](O)[C@H]6O)[C@H]5NC(C)=O)[C@H](O)[C@H]4O)[C@H]3NC(C)=O)[C@H](O)[C@H]2O)[C@H](O)[C@H](O)CO)c1"
  N: 1.04
- smiles_input: "COc1ccc(C(=O)O)c(NC[C@H](NC(C)=O)[C@@H](O[C@@H]2O[C@H](C(=O)O)[C@@H](O[C@@H]3O[C@H](CO)[C@@H](O)[C@H](O[C@@H]4O[C@H](C(=O)O)[C@@H](O[C@@H]5O[C@H](CO)[C@@H](O)[C@H](O[C@@H]6O[C@H](C(=O)O)[C@@H](O)[C@H](O)[C@H]6O)[C@H]5NC(C)=O)[C@H](O)[C@H]4O)[C@H]3NC(C)=O)[C@H](O)[C@H]2O)[C@H](O)[C@H](O)CO)c1"
  N: 1.00
- smiles_input: "CC(=O)N[C@H]1[C@H](O[C@H]2[C@H](O)[C@@H](O)[C@H](O[C@H]3[C@H](O)[C@@H](CO)O[C@@H](O[C@H]4[C@H](O)[C@@H](O)[C@H](O[C@H]5[C@H](O)[C@@H](CO)O[C@@H](O[C@H]6[C@H](O)[C@@H](O)[C@H](O[C@@H]([C@H](O)[C@H](O)CO)[C@H](CNc7cccc8c7CCC8)NC(C)=O)O[C@@H]6C(=O)O)[C@@H]5NC(C)=O)O[C@@H]4C(=O)O)[C@@H]3NC(C)=O)O[C@@H]2C(=O)O)O[C@H](CO)[C@@H](O)[C@@H]1O[C@@H]1O[C@H](C(=O)O)[C@@H](O)[C@H](O)[C@H]1O"
  N: 1.01
- smiles_input: "CC(=O)N[C@H]1[C@H](O[C@H]2[C@H](O)[C@@H](O)[C@H](O[C@H]3[C@H](O)[C@@H](CO)O[C@@H](O[C@H]4[C@H](O)[C@@H](O)[C@H](O[C@H]5[C@H](O)[C@@H](CO)O[C@@H](O[C@H]6[C@H](O)[C@@H](O)[C@H](O[C@@H]([C@H](O)[C@H](O)CO)[C@H](CNc7ccc8c(c7)CCC8)NC(C)=O)O[C@@H]6C(=O)O)[C@@H]5NC(C)=O)O[C@@H]4C(=O)O)[C@@H]3NC(C)=O)O[C@@H]2C(=O)O)O[C@H](CO)[C@@H](O)[C@@H]1O[C@@H]1O[C@H](C(=O)O)[C@@H](O)[C@H](O)[C@H]1O"
  N: 0.97
